System: SF-539 CNS
Assay: NCI-60 one-dose screen, 48 h (100 = growth as untreated, 0 = no growth, -100 = all killed)
Details: 10 µM unless noted
This is part of a sample that, as a whole, favours compounds with a hit. Of some 83,000 tested, about 20% had one in any assay.
Classes based on growth: bucket 1: < 10%; bucket 2: ≥ 10% and < 90%; bucket 3: ≥ 90%

>>> df
                           molecular_string  qualitative_label
0  CC(=O)c1c(C)[nH]c(-c2nc3ccc(N4CCN(C)CC4)cc3[nH]2)c1-c1ccc(N(C)C)cc1           bucket 2
1  CC(C)=CCC/C(C)=C/CC/C(C)=C/CC/C(C)=C/CSC[C@H](NC(=O)CCCCCN1CCN(C)CC1)C(=O)NC1CCCCC1           bucket 2

Q) GET /class?item= O=C1c2cc3c(cc2-c2c1c1ccc(F)cc1c(=O)n2CCCN1CCOCC1)OCO3
A) bucket 2

Q) GET /class?item= Fc1ccc(Nc2nnc(-c3ccc(Cl)cc3)o2)cc1
A) bucket 3

Q) GET /class?item= COc1ccc(-c2cc(-c3c(C)oc4cc5occc5c(OC)c4c3=O)nc(N)c2C#N)cc1OC
A) bucket 2

Q) GET /class?item= N#Cc1cnc2cc(OC[C@@H](O)CO)c(NC(=O)CC3CSSC3)cc2c1Nc1ccc(OCc2cccc(F)c2)c(Cl)c1
A) bucket 1

Q) GET /class?item= O=C1c2cc3c(cc2-c2c1c1ccc(Cl)cc1c(=O)n2C[C@H](O)[C@@H](O)[C@H](O)CO)OCO3
A) bucket 1

Q) GET /class?item= Cn1c(/C(C#N)=C/c2ccc3ccccc3c2)cc2ccccc21
A) bucket 1

Q) GET /class?item= Cc1ccc2oc(=O)cc(-c3sc(N4CCCCC4)nc3-c3ccccc3)c2c1
A) bucket 3

Q) GET /class?item= OCC(CO)(CCl)CCl
A) bucket 3

Q) GET /class?item= CCc1ccccc1NC(=O)c1sc2nc3c(cc2c1N)CCCC3
A) bucket 2

Q) GET /class?item= C#CCn1c2c(c3ccccc31)C[C@]1(C)[C@H]3CC[C@@H]4[C@@H]5C(=CCC[C@H]5C(=C)C)CC[C@@]4(C)[C@]3(C)CC[C@H]1C2(C)C
A) bucket 3

Q) GET /class?item= COC(=O)[C@]12CC[C@@H](C)[C@H](C)[C@@H]1C1=CC[C@@H]3[C@@]4(C)C[C@@H](O)[C@H](O)[C@@](C)(CO)C4=CC[C@@]3(C)[C@]1(C)CC2
A) bucket 1

Q) GET /class?item= COc1ccc(C2=NN(c3nc(-c4ccc(OC)cc4)c(C#N)c(=O)n3C)C(=O)CC2)cc1
A) bucket 3

Q) GET /class?item= Fc1cccc(-c2[nH]nc3nc(Nc4cccnc4)sc23)c1
A) bucket 2

Q) GET /class?item= Cc1cc(N2CCCC2)nc(N(CCNc2ccnc3cc(Cl)ccc23)Cc2ccco2)n1
A) bucket 1
